molecular target: human GPRC5D (human, UniProt Q9NZD1 1-345); test: cell-based or functional assay
Sequence (Q9NZD1 whole entry): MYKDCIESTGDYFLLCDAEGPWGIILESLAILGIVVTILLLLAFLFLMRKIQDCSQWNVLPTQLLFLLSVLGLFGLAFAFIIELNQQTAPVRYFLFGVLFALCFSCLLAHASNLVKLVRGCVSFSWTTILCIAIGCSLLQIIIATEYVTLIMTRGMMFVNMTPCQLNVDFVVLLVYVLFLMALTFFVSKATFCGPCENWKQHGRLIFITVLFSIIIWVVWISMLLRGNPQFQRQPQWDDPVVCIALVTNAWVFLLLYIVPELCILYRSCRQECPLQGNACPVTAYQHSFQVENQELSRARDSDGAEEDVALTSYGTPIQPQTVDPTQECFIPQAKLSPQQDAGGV
OUTCOME_MEASURE: EC50 values of CAR-J activation (ng/mL)
The response must be a number in ng/mL with no trailing unit.

Form field: reported EC50 values of CAR-J activation of 5E11_P1AE5723 (antibody, V domains shown, Humanized 5E11 IgG; PGLALA Fc implied by the CAR-J assay; also called 5E11_VH1c + 5E11_VL2b) VH: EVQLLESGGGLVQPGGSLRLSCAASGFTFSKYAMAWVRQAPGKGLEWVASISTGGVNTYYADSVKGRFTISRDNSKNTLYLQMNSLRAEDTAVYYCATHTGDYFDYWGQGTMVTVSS VL: EIVLTQSPGTLSLSPGERATLSCRASQSVSISGINLMNWYQQKPGQQPKLLIYHASILASGIPDRFSGSGSGTDFTLTISRLEPEDFAVYYCQQTRESPLTFGQGTRLEIK 3.7

Same again, this time with P1AE5730 (antibody, V domains shown, Humanized 5E11 IgG; PGLALA Fc implied by the CAR-J assay; also called 5E11_VH1d + 5E11_VL3a) VH: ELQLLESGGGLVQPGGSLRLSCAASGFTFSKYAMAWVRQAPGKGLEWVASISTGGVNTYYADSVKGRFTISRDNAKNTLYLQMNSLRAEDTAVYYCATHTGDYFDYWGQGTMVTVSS VL: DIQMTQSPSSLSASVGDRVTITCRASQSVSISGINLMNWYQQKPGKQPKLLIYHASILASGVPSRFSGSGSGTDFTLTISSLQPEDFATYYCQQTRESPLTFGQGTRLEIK 3.5

Same again, this time with 5F11-IgG (antibody, V domains shown, Rat-derived variable domains, tested as IgG; also called P1AE5733 (parental); 5F11_parental) VH: EVQLVESGGGLVQPGRSLKLSCAASGFSFSNYGMAWVRQAATKGLEWVASISTGGGNTYYRDSVKGRFIVSRDNAKNTQYLQMDSLRSEDTATYYCTRHDRGGLYWGQGVMVTVSS VL: DIVMTQAPLSVSVTPGESASISCRSSKSLLHSNGITYVYWYFQKPGKSPQVLIYRMSNLASGVPDRFSGSGSETDFTLKISRVEAEDVGIYHCGQLLENPYTFGAGTELELK 2.65

Same again, this time with 5F11_P1AE5741 (antibody, V domains shown, Humanized 5F11 IgG; PGLALA Fc implied by the CAR-J assay; also called 5F11_VH1b + 5F11_VL2a) VH: EVQLVESGGGVVQPGRSLRLSCAASGFSFSNYGMAWVRQAPGKGLEWVASISTGGGNTYYRDSVKGRFTISRDNAKNTLYLQMNSLRAEDTAVYYCTRHDRGGLYWGQGTMVTVSS VL: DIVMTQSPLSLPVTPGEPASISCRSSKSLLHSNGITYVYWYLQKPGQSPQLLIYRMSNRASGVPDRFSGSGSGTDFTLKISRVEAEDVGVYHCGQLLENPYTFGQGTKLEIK 1.4

Same again, this time with 5E11-IgG (antibody, V domains shown, Rat-derived variable domains, tested as IgG; also called P1AE5706 (parental); 5E11 parental) VH: ELQLEQSGGGLVQPGGSLTLSCAASGFTFSKYAMAWVRQAPTKGLEWVASISTGGVNTYYRDSVKARFTISRDNAKNTQYLQMDSLRSEDTATYYCATHTGDYFDYWGQGVMVTVSS VL: DIVLTQSPALAVSPGQRATISCRASQSVSISGINLMNWYQQKPGQQPKLLIYHASILASGIPTRFSGSGSGTDFTLTIDPVQADDIATYYCQQTRESPLTFGSGTNLEIK 3.9
